Every entry's value here was drawn from ChEMBL document CHEMBL4513216.

method: Toxicity liver stage against HepG2, at 10uM
Assay type: cell-based
Set-up: test concentration 10 uM, cell line HepG2-A16-CD81EGFP
condition-label: human, HepG2-A16-CD81EGFP cells; read-out: INHIBITION
In this section, each of the compounds is paired with its reported cytotoxicity at 10 µM.
Just the number in %, nothing appended.

[[record]]
compound = "Fc1ccc([C@@H]2COC[C@H]2NCc2cccc(F)c2)cc1"
readout_value = -2.92

[[record]]
compound = "O=C(CCn1cnc2ccccc21)N1CCN2CCCCC2C1 (stereo unspecified)"
readout_value = -4.34

[[record]]
compound = "O=C(C1CC(=O)N(C2CC2)C1)N1CCC(Oc2ccccc2Cl)CC1 (stereo unspecified)"
readout_value = -7.54

[[record]]
compound = "CCc1nc(CN2CCCN(C(=O)c3cnc[nH]3)CC2)cs1"
readout_value = -9.39

[[record]]
compound = "CCN(C(=O)Cc1ccc(NCc2nccn2C)cc1)c1ccccc1"
readout_value = -2.09


**Q:** Requested read-out: cytotoxicity at 10 µM. Entry: Cc1c(I)cccc1C(=O)NCC1(CO)CC1
**A:** -4.11

**Q:** Requested read-out: cytotoxicity at 10 µM. Entry: O=C(NCc1ccc(-c2ccn[nH]2)cc1)N1CCC(N2CCCC2)C1 (stereo unspecified)
**A:** -8.35

**Q:** Requested read-out: cytotoxicity at 10 µM. Entry: CC(C)c1ccc(OCC(=O)N(C)C)cc1
**A:** -2.82

**Q:** Requested read-out: cytotoxicity at 10 µM. Entry: COc1cccc(CN(C)Cc2nc3c(cnn3C)c(=O)[nH]2)c1OC
**A:** -4.28

**Q:** Requested read-out: cytotoxicity at 10 µM. Entry: O=C(CCn1cc(Cl)cn1)N1C[C@H]2CC[C@@H](C1)N(Cc1ccccn1)C2
**A:** 7.15

**Q:** Requested read-out: cytotoxicity at 10 µM. Entry: O=S(=O)(NCCc1c[nH]c2cc(F)ccc12)C1CCOC1 (stereo unspecified)
**A:** 8.57

**Q:** Requested read-out: cytotoxicity at 10 µM. Entry: CCN(C)[C@H]1CN(C(=O)c2cccc(N3CCS(=O)(=O)CC3)c2)C[C@@H]1O
**A:** -5.62
